# measured-on: feline IL-31 15H05 mutant (Feline_IL31_15H05 mutant) (feline)
# Sequence (chain, as listed by the source mutant limits assumed, form in doubt): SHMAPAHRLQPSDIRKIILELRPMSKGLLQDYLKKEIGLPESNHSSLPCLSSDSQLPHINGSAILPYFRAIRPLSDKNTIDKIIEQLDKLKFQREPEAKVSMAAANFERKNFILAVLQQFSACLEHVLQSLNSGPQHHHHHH
# experiment: indirect ELISA, coated IL-31; note: test concentration or dose not given here
property-name: Binding (ELISA OD)
Entry rule: numbers only, all in OD.

// query Please look up its Binding (ELISA OD): ZIL9 (antibody, V domains shown) VH: EVQLVESGGDLVKPPGSLRLSCVASGFTFSSYDMTWVRQAPGKGLQWVADVNSGGTGTAYAVAVKGRFTISRDNAKKTLYLQMNSLRAEDTAVYYCAKLGVRDGLSVWGQGTLVTVSS VL: SSVLTQPPSVSVSLGQTATISCSGESLNEYYTQWFQQKAGQAPVLVIYRDTERPSGIPDRFSGSSSGNTHTLTISGARAEDEADYYCESAVDTGTLVFGGGTHLAVLR
// result 0.73

// query Now try mouse anti IL-31 antibody 11E12 (antibody, V domains shown) VH: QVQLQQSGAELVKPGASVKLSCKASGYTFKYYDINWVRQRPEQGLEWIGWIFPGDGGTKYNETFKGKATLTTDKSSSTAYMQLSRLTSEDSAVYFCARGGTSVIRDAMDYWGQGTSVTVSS VL: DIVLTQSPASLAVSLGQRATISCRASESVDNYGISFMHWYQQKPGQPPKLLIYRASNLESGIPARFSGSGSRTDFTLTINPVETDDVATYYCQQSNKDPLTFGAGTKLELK .
// result 1.33

// query Try mouse anti IL-31 antibody 15H05 (antibody, V domains shown) VH: QVQLQQSAAELARPGASVKMSCKTSGYTFTSYTIHWIKQRPGQGLEWIGNINPTSGYTENNQRFKDKTTLTVDRSSNTAYLQLHSLTSEDSAVYFCARWGFKYDGEWSFDVWGAGTTVTVSS VL: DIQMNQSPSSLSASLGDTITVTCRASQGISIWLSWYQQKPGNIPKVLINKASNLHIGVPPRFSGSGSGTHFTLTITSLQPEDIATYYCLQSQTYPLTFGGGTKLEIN next.
// result 0.05

// query Continue with ZIL1 (antibody, V domains shown) VH: EVQLVESGGDLVKPGGSLRLSCVASGFTFSSYGMSWVRQAPGKGLQWVAHINSGGSSTYYADAVKGRFTISRDNAKNTLYLQMNSLRAEDTAVYYCVEVYTTLAAFWTDNFDYWGQGTLVTVSS VL: QSVLTQPTSVSGSLGQRVTISCSGSTNNIGILAATWYQQLPGKAPKVLVYSDGNRPSGVPDRFSGSKSGNSATLTITGLQAEDEADYYCQSFDTTLDAYVFGSGTQLTVLR
// result 0.92
